assay.context: pH 2.7
Marks after values point to notes of the source that are not given here.
Task for the reader: assign each of the following compounds its reported LogP.

Would you mind telling me what LogP value was observed for CC(Oc1ccccc1Br)C(=O)Nc1nc(CO/N=C(/c2ccccc2)c2noc(=O)n2C)cs1 (stereo not shown) ?
4.2 [a]

Please look up its LogP: Cn1c(/C(=N\OCc2cccc(NC(=O)OCC(C)(CO)CCl)n2)c2ccccc2)noc1=O (stereo not shown)
3.19 [a]

What LogP value was documented for this compound, CSCCCOC(=O)Nc1cccc(CO/N=C(/c2ccccc2)c2noc(=O)n2C)n1 ?
3.68 [a]

Suppose we examine the compound CC(Oc1cccc(Cl)c1)C(=O)Nc1cccc(CO/N=C(/c2ccccc2)c2noc(=O)n2C)n1 (stereo not shown) ; what LogP value has been reported?
4.38 [a]

Value lookup for LogP; key = CC(C)=CCCOC(=O)Nc1cccc(CO/N=C(/c2ccccc2)c2noc(=O)n2C)n1
4.39 [a]

# query: LogP of entry COc1cccc(/C(=N/OCc2cccc(NC(=O)OC3CCCCC3)n2)c2noc(=O)n2C)c1
4.49 [a]

Reported LogP for Cn1c(/C(=N\OCc2cccc(NC(=O)OCC3CCCCC3)n2)c2ccccc2)noc1=O : what is it?
4.88 [a]

Which value of LogP has been reported for Cn1c(/C(=N\OCc2cccc(NC(=O)OCCCC3CC3)n2)c2ccccc2)noc1=O in the records?
4.37 [a]

# query: LogP of entry Cn1c(/C(=N\OCc2cccc(NC(=O)OCc3cccc(C#N)c3)n2)c2ccccc2)noc1=O
3.65 [a]

For the compound CSCCC(=O)Nc1cccc(CO/N=C(/c2ccccc2)c2noc(=O)n2C)n1 , what LogP is on record?
3.09 [a]

Would you kindly share the measured LogP for CCCCC(=O)Nc1cccc(CO/N=C(/c2cccc(OC)c2)c2noc(=O)n2C)n1 ?
3.55 [a]

Entry under review: Cn1c(/C(=N\OCc2cccc(NC(=O)OCc3cccs3)n2)c2ccccc2)noc1=O . Reported LogP?
3.83 [a]

Which LogP is listed for Cn1c(/C(=N\OCc2cccc(NC(=O)CCCCCBr)n2)c2ccccc2)noc1=O ?
3.85 [a]

What measured LogP goes with CCCC(C)COC(=O)Nc1cccc(CO/N=C(/c2ccccc2)c2noc(=O)n2C)n1 (stereo not shown) ?
4.83 [a]

What value of LogP has been recorded for this entry: Cn1c(/C(=N\OCc2csc(NC(=O)COc3cccc(F)c3)n2)c2ccccc2)noc1=O
3.58 [a]

Quick check: LogP of COc1ccccc1OCC(=O)Nc1cccc(CO/N=C(/c2ccccc2)c2noc(=O)n2C)n1 ?
3.8 [a]

* * *

System: Plasmopara viticola
method.description: Plasmopara test (grapevines)/preventive
Format: in vivo
assay.context: preventive spray, 10 ppm of active ingredient, evaluated 6 days after inoculation
Would you mind telling me the reported Eff. % of each entry?
Answer format: numeric, % implied, no suffix.

Item Cc1cccc(OC(C)C(=O)Nc2nc(CO/N=C(/c3ccccc3)c3noc(=O)n3C)cs2)c1 (centres unmarked) [Example 80] has what recorded Eff. %?
98

Dear colleague, I am looking for the recorded Eff. % of the following compound: CC(Oc1cccc(Cl)c1)C(=O)Nc1nc(CO/N=C(/c2ccccc2)c2noc(=O)n2C)cs1 (centres unmarked) [Example 321]
82

Looking for the measured Eff. % of Cc1ccc(C(=O)Nc2nc(CO/N=C(/c3ccccc3)c3noc(=O)n3C)cs2)cc1 [Example 180] , can you help?
95

Returns the measured Eff. % for the input compound. Input: Cn1c(/C(=N\OCc2cccc(NCCc3ccccc3)n2)c2ccccc2)noc1=O [Example 74]
94

Report Eff. % for CCC(C)(C)OC(=O)Nc1cccc(CO/N=C(/c2ccccc2)c2noc(=O)n2C)n1 [Example 120] please.
84

Record request: Eff. % value, item C#CCC(C)(C)OC(=O)Nc1cccc(CO/N=C(/c2ccccc2)c2noc(=O)n2C)n1 [Example 39]
97

Please look up its Eff. %: C#CCC(C)OC(=O)Nc1cccc(CO/N=C(/c2ccccc2)c2noc(=O)n2C)n1 (centres unmarked) [Example 226]
100

Param item = Cn1c(/C(=N\OCc2cccc(NC(=O)OCC3CCCC3)n2)c2ccccc2)noc1=O [Example 16] ; retrieve measured Eff. %.
94

* * *

assay.context: pH 2.7
Marks after values point to notes of the source that are not given here.
readout: LogP

Reported LogP for Cc1cccc(/C(=N/OCc2cccc(NC(=O)C(C)(C)C)n2)c2noc(=O)n2C)c1 [Example 387] : what is it?
3.85 [a]

Sample CCC1(C(=O)Nc2cccc(CO/N=C(/c3ccccc3)c3noc(=O)n3C)n2)C(C)C1(Cl)Cl (centres unmarked) [Example 189] — what was its LogP?
4.35 [a]

So what's the measured LogP for this one? Cn1c(/C(=N\OCc2cccc(NC(=O)CCc3ccccc3)n2)c2ccccc2)noc1=O [Example 347]
3.78 [a]

If you can, please state the reported LogP value of COc1cccc(OC(C)C(=O)Nc2nc(CO/N=C(/c3ccccc3)c3noc(=O)n3C)cs2)c1 (centres unmarked) [Example 50] .
3.71 [a]

Query (compound): Cn1c(/C(=N\OCc2cccc(NC(=O)C3CCC3)n2)c2ccccc2)noc1=O [Example 118] ; field requested: LogP
3.27 [a]

Need LogP, item CN(C)CCCOC(=O)Nc1cccc(CO/N=C(/c2ccccc2)c2noc(=O)n2C)n1 [compound 472]
1.88 [a]

What LogP value was documented for this compound, Cc1ccc(/C(=N/OCc2csc(N)n2)c2noc(=O)n2C)cc1 [Example 326] ?
1.82 [a]

What does the record list as LogP for Cn1c(/C(=N\OCc2cccc(NC(=O)Cc3ccc(Cl)cc3)n2)c2ccccc2)noc1=O [Example 196] ?
3.92 [a]

Fill in: LogP of C=CCOC(=O)Nc1cccc(CO/N=C(/c2ccccc2)c2noc(=O)n2C)n1 [Example 109] is ___
3.42 [a]

Item under review: Cn1c(C(=NOCc2cccc(N)n2)c2cccc(F)c2F)noc1=O [Example 508] . Reported LogP?
1.34 [a]

Report LogP for CCCCC(=O)Nc1cccc(CO/N=C(/c2ccccc2F)c2noc(=O)n2C)n1 [Example 480] please.
3.44 [a]

What LogP value was documented for this compound, Cn1c(/C(=N\OCc2cccc(NC(=O)C3Cc4ccccc4CO3)n2)c2ccccc2)noc1=O (centres unmarked) [Example 85] ?
4.17 [a]

Quick one: LogP for CCCC#CCCOC(=O)Nc1cccc(CON=C(c2ccccc2)c2noc(=O)n2C)n1 [compound 511] ?
4.31 [a]

Which measured LogP value corresponds to Cn1c(C(=NOCc2cccc(N)n2)c2ccccc2F)noc1=O [Example 510] ?
1.23 [a]

For Cc1ccoc1C(=O)Nc1cccc(CO/N=C(/c2ccccc2)c2noc(=O)n2C)n1 [Example 170] , what is its reported LogP?
3.71 [a]

Sample CCCCC(C)(C)OC(=O)Nc1cccc(CO/N=C(/c2ccccc2)c2noc(=O)n2C)n1 [Example 353] — what was its LogP?
5.1 [a]

What value of measured LogP is listed for CC(C)CC(C)OC(=O)Nc1cccc(CO/N=C(/c2ccccc2)c2noc(=O)n2C)n1 (centres unmarked) [Example 273] ?
4.68 [a]

* * *

Would you mind telling me the reported Eff. % of each entry?
Test system: Pyrenophora teres
method.description: In vivo test on Pyrenophora teres (barley net blotch)
assay.context: barley plants, spray, 500 ppm, grading 12 days after contamination
Write the value in % as a bare number.

Consider the compound shown here: CCCCCOC(=O)Nc1cccc(CO/N=C(/c2cccc(OC)c2)c2noc(=O)n2C)n1 [Example 36] What is its recorded Eff. %?
71

Recorded Eff. % of Cn1c(C(=NOCc2cccc(NC(=O)Cc3cc(F)ccc3F)n2)c2ccccc2)noc1=O [Example 255] , please.
70

Bench note: what Eff. % did Cn1c(/C(=N\OCc2cccc(NC(=O)C3CC3)n2)c2ccccc2)noc1=O [Example 35] show?
100

Request the reported Eff. % associated with COCC(=O)Nc1cccc(CO/N=C(/c2ccccc2)c2noc(=O)n2C)n1 [Example 379]
100

* * *

Assign LogP to each entry below.
assay.context: pH 2.7
Marks after values point to notes of the source that are not given here.

Quick check: LogP of CCCOC(=O)Nc1cccc(CO/N=C(/c2ccccc2)c2noc(=O)n2C)n1 ?
3.62 [a]

Recorded LogP of COc1ccc(CC(=O)Nc2cccc(CO/N=C(/c3cccc(OC)c3)c3noc(=O)n3C)n2)cc1 , please.
3.51 [a]

// LogP lookup, key: CC(=O)OCCCCOC(=O)Nc1cccc(CO/N=C(/c2ccccc2)c2noc(=O)n2C)n1
3.35 [a]

Could you tell me which LogP is on file for Cn1c(/C(=N\OCc2csc(NC(=O)COC3CCCC3)n2)c2ccccc2)noc1=O ?
3.73 [a]

* * *

System: Puccinia recondita
method.description: In vivo test on Puccinia recondita (brown rust)
assay.context: wheat plants, spray, 500 ppm, grading 10 days after contamination
Method: The active ingredients tested are prepared by homogenization in a mixture of acetone/tween/DMSO, then diluted with water to obtain the desired active material. Wheat plants (Scipion variety) sown on 50/50 peat soil-pozzolana substrate in starter cups and grown at 22° C. (12 h)/20° C. (12 h), are treated at the 1-leaf stage (10 cm tall) by spraying with the aqueous suspension described above. Plants, used as controls, are treated with an aqueous solution not containing the active material. […]
For each entry below, report its Eff. % value.
The number alone won't do; follow it with the unit.

Missing value: Eff. %, Puccinia recondita, entry CCn1c(C(=NOCc2cccc(NC(=O)CC(C)C)n2)c2ccccc2)noc1=O . Fill in?
98%

Form field - read-out: Eff. %; system: Puccinia recondita; submitted item: COc1cccc(/C(=N/OCc2cccc(NC(=O)OC(C)(C)C)n2)c2noc(=O)n2C)c1
81%

Lookup: Eff. % / Puccinia recondita / CCCCC(=O)Nc1cccc(CO/N=C(/c2cccc(C)c2)c2noc(=O)n2C)n1
79%

Find the measured Eff. %: item Cn1c(/C(=N\OCc2cccc(NC(=O)CCCCBr)n2)c2ccccc2)noc1=O , target or system Puccinia recondita.
81%
